# MEASURED_TARGET: human CPT1A (Homo sapiens, UniProt P50416)
# Construct: made in house; host or cells: Saccharomyces cerevisiae (pESC-trp) or cultured mammalian cells (pCDNA3.1); mitochondrial extract
# Sequence (P50416 whole entry): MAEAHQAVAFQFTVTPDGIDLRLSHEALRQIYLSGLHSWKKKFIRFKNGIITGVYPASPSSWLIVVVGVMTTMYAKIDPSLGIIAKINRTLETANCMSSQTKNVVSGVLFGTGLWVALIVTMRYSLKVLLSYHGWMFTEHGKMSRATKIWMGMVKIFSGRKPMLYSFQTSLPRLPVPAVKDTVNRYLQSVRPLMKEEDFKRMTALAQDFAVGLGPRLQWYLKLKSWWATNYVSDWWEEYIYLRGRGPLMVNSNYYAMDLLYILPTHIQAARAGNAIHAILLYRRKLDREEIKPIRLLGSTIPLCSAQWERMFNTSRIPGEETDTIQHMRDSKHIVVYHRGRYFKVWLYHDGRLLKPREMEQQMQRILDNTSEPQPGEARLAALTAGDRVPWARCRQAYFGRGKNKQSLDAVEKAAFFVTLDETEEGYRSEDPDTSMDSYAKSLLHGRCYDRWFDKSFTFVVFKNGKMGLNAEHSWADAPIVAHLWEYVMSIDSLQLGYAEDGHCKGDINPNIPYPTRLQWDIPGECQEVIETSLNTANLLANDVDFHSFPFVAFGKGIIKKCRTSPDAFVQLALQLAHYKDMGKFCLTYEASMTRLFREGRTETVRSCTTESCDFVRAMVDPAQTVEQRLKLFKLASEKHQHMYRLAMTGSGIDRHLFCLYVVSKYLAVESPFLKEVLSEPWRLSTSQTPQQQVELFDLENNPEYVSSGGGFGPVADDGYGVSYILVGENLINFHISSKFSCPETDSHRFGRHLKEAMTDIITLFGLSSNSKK
# METHOD_NOTES: Human CPT1A LC/MS assay
# Assay type: biochemical
# DETAILS: human CPT1A LC/MS assay, dose response format
pIC50: −log10 of the molar value. Counter-ions that a name gives are not always drawn.
MEASUREMENT_KIND: pIC50

CCCCCc1ccc(CCC2CCC(C(=O)N[C@H](CC(=O)[O-])C[N+](C)(C)C)O2)cc1 (stereo partly shown) [Example S121] :: 5.00 to 6.00
CCCCCCCCOc1ccc(NS(=O)(=O)N[C@H](CC(=O)[O-])C[N+](C)(C)C)cc1 [Example S103] :: ≥ 6.00
CCCCCCC(=O)C(=O)N[C@H](CC(=O)O)C[N+](C)(C)C [Example S120, 2,2,2-trifluoroacetate] :: 5.00 to 6.00
C[N+](C)(C)C[C@@H](CC(=O)O)NC(=O)Nc1ccccc1I [Example S99] :: < 2.60
C[N+](C)(C)C[C@@H](CC(=O)[O-])NC(=O)Nc1ccccc1Oc1ccccc1 [Example S100] :: < 2.60

Short answer for CCCCCCOc1cccc(CCc2ccc(C(=O)N[C@H](CC(=O)O)C[N+](C)(C)C)o2)c1 [Example S125, 2,2,2-trifluoroacetate] : pIC50 was ≥ 6.00

# pIC50 (molecule: Cc1ncoc1C(=O)N[C@H](CC(=O)O)C[N+](C)(C)C [Example S49, trifluoroacetate] ) is 3.00 to 4.00

* * *

# Tested on: COLO-205
# METHOD_NOTES: Cell growth inhibition, SRB assay
# Format: cell-based, human
# DETAILS: Homo sapiens; Colon COLO-205, 3% FBS
MEASUREMENT_KIND: GI50
Please append the unit to your numeric answer.

Look over these answered cases.
CCCCCCCCCCc1ccc(C(=O)N[C@H](CC(=O)[O-])C[N+](C)(C)C)cc1 [Example S66] :: 0.4 µM
CCCCCCCCCCOc1ccc(C(=O)N[C@H](CC(=O)O)C[N+](C)(C)C)cc1 [Example S63, 2,2,2-trifluoroacetate] :: 0.3 µM
CCCCCCCCCCCCc1ccc(NS(=O)(=O)N[C@H](CC(=O)O)C[N+](C)(C)C)cc1 [Example S89] :: 1.4 µM
CCCCCCCOc1ccc(NC(=O)N[C@H](CC(=O)[O-])C[N+](C)(C)C)cc1 [Example S10] :: 4.6 µM
CCCCCCCCc1ccc(NC(=O)N[C@H](CC(=O)[O-])C[N+](C)(C)C)cc1 [Example S7] :: 0.9 µM

The value of GI50 measured for the molecule CCCCCCCCCCOc1cccc(C(=O)N[C@H](CC(=O)[O-])C[N+](C)(C)C)c1 [Example S67] turned out to be 2.7 µM

For record CCCCCCCCCCCCCCc1ccc(NS(=O)(=O)N[C@H](CC(=O)O)C[N+](C)(C)C)cc1 [Example S90] the listed GI50 is 2.4 µM

Form: molecule = CCCCCCCCCCc1ccc(S(=O)(=O)N[C@H](CC(=O)O)C[N+](C)(C)C)cc1 [Example S75, 2,2,2-trifluoroacetate] ; GI50 = 3.6 µM
